Test Summary: PK of compound of Formula (Ia) after single subcutaneous dose of solution formulations in Wistar Han rats
Format: in vivo
Condition Summary: male, Wistar Han, rat, plasma, sc, 50 mg/kg, 1344 h; mean, n = 5 rats; SC 50 mg/kg; solution T, 400 mg/mL
Assay Readout: concentration at 1344 h
Report as: number unit

Recorded concentration at 1344 h (molecule CC(C)(C#Cc1ccc(-c2ccc(Cl)c3c(NS(C)(=O)=O)nn(CC(F)(F)F)c23)c([C@H](Cc2cc(F)cc(F)c2)NC(=O)Cn2nc(C(F)(F)F)c3c2C(F)(F)[C@@H]2C[C@H]32)n1)S(C)(=O)=O ): 159 nM

* * *

Test Summary: PK of compound of Formula (Ia) after single subcutaneous dose of solution formulations in beagle dogs
Type: in vivo
Condition Summary: male, beagle, dog, plasma, sc, 12 mg/kg, beagle dogs, SC 12 mg/kg, 400 mg/mL solution Y (water, PEG 300), 2352 h, animals #1-#3
Assay Readout: concentration at 2352 h (nM)
Write it as a number; the unit nM goes unstated.

Recorded concentration at 2352 h (compound CC(C)(C#Cc1ccc(-c2ccc(Cl)c3c(NS(C)(=O)=O)nn(CC(F)(F)F)c23)c([C@H](Cc2cc(F)cc(F)c2)NC(=O)Cn2nc(C(F)(F)F)c3c2C(F)(F)[C@@H]2C[C@H]32)n1)S(C)(=O)=O [compound of Formula (Ia)] ): 18.1

* * *

Test Summary: PK of compound of Formula (Ia) after single subcutaneous dose of solution formulations in Wistar Han rats
Assay type: in vivo
Condition Summary: male, Wistar Han, rat, plasma, sc, 50 mg/kg, 96.0 h; mean, n = 3 rats; SC 50 mg/kg; solution V, 300 mg/mL
Assay Readout: concentration at 96 h (µM)
Write it as a number; the unit µM goes unstated.

Recorded concentration at 96 h (compound CC(C)(C#Cc1ccc(-c2ccc(Cl)c3c(NS(C)(=O)=O)nn(CC(F)(F)F)c23)c([C@H](Cc2cc(F)cc(F)c2)NC(=O)Cn2nc(C(F)(F)F)c3c2C(F)(F)[C@@H]2C[C@H]32)n1)S(C)(=O)=O [compound of Formula (Ia)] ): 0.136

* * *

Test Summary: PK of compound of Formula (Ia) after single subcutaneous dose of solution formulations in Wistar Han rats
Assay type: in vivo
Condition Summary: male, Wistar Han, rat, plasma, sc, 50 mg/kg, 1.00 h; mean, n = 5 rats; SC 50 mg/kg; solution T, 400 mg/mL
Assay Readout: concentration at 1 h
Report as: number unit

Recorded concentration at 1 h (molecule CC(C)(C#Cc1ccc(-c2ccc(Cl)c3c(NS(C)(=O)=O)nn(CC(F)(F)F)c23)c([C@H](Cc2cc(F)cc(F)c2)NC(=O)Cn2nc(C(F)(F)F)c3c2C(F)(F)[C@@H]2C[C@H]32)n1)S(C)(=O)=O [compound of Formula (Ia)] ): 56.4 nM

* * *

Test Summary: PK of compound of Formula (Ia) after single subcutaneous dose of solution formulations in Wistar Han rats
Format: in vivo
Condition Summary: male, Wistar Han, rat, plasma, sc, 50 mg/kg, 7392 h; mean, n = 3 rats; SC 50 mg/kg; solution R, 400 mg/mL
Assay Readout: concentration at 7392 h (µM)
Write it as a number; the unit µM goes unstated.

Recorded concentration at 7392 h (compound CC(C)(C#Cc1ccc(-c2ccc(Cl)c3c(NS(C)(=O)=O)nn(CC(F)(F)F)c23)c([C@H](Cc2cc(F)cc(F)c2)NC(=O)Cn2nc(C(F)(F)F)c3c2C(F)(F)[C@@H]2C[C@H]32)n1)S(C)(=O)=O ): 0.0165

* * *

Test Summary: PK of compound of Formula (Ia) after single subcutaneous dose of solution formulations in beagle dogs
Type: in vivo
Condition Summary: male, beagle, dog, plasma, sc, 12 mg/kg, mean ± SD, n = 3 dogs; SC 12 mg/kg; solution T, 400 mg/mL
Assay Readout: Cmax (nM)
Write it as a number; the unit nM goes unstated.

Recorded Cmax (compound CC(C)(C#Cc1ccc(-c2ccc(Cl)c3c(NS(C)(=O)=O)nn(CC(F)(F)F)c23)c([C@H](Cc2cc(F)cc(F)c2)NC(=O)Cn2nc(C(F)(F)F)c3c2C(F)(F)[C@@H]2C[C@H]32)n1)S(C)(=O)=O [compound of Formula (Ia)] ): 353

* * *

Test Summary: PK of compound of Formula (Ia) after single subcutaneous dose of solution formulations in Wistar Han rats
Type: in vivo
Condition Summary: male, Wistar Han, rat, plasma, sc, 50 mg/kg, Wistar Han rats, SC 50 mg/kg, 400 mg/mL solution Z (3.13% poloxamer 188), 1008 h, Mean n = 4
Assay Readout: concentration at 1008 h (nM)
Write it as a number; the unit nM goes unstated.

Recorded concentration at 1008 h (molecule CC(C)(C#Cc1ccc(-c2ccc(Cl)c3c(NS(C)(=O)=O)nn(CC(F)(F)F)c23)c([C@H](Cc2cc(F)cc(F)c2)NC(=O)Cn2nc(C(F)(F)F)c3c2C(F)(F)[C@@H]2C[C@H]32)n1)S(C)(=O)=O [compound of Formula (Ia)] ): 164

* * *

Test Summary: PK of compound of Formula (Ia) after single subcutaneous dose of solution formulations in beagle dogs
Assay type: in vivo
Condition Summary: male, beagle, dog, plasma, sc, 12 mg/kg, beagle dogs, SC 12 mg/kg, 400 mg/mL solution Y (water, PEG 300), 672 h, animals #1-#3
Assay Readout: concentration at 672 h (nM)
Write it as a number; the unit nM goes unstated.

Recorded concentration at 672 h (molecule CC(C)(C#Cc1ccc(-c2ccc(Cl)c3c(NS(C)(=O)=O)nn(CC(F)(F)F)c23)c([C@H](Cc2cc(F)cc(F)c2)NC(=O)Cn2nc(C(F)(F)F)c3c2C(F)(F)[C@@H]2C[C@H]32)n1)S(C)(=O)=O [compound of Formula (Ia)] ): 229

* * *

Test Summary: PK of compound of Formula (Ia) after single intramuscular dose of solution formulations in Wistar Han rats
Type: in vivo
Condition Summary: male, Wistar Han, rat, plasma, intramuscular, 100 mg/kg, 24.0 h; mean, n = 4 rats; IM 100 mg/kg; solution M, 500 mg/mL; read-out: Plasma concentration
Assay Readout: concentration at 24 h (nM)
Write it as a number; the unit nM goes unstated.

Recorded concentration at 24 h (compound CC(C)(C#Cc1ccc(-c2ccc(Cl)c3c(NS(C)(=O)=O)nn(CC(F)(F)F)c23)c([C@H](Cc2cc(F)cc(F)c2)NC(=O)Cn2nc(C(F)(F)F)c3c2C(F)(F)[C@@H]2C[C@H]32)n1)S(C)(=O)=O ): 750

* * *

Test Summary: PK of compound of Formula (Ia) after single subcutaneous dose of solution formulations in Wistar Han rats
Assay type: in vivo
Condition Summary: male, Wistar Han, rat, plasma, sc, 50 mg/kg, mean ± SD, n = 5 rats; SC 50 mg/kg; solution U, 500 mg/mL
Assay Readout: Cmax

Recorded Cmax (compound CC(C)(C#Cc1ccc(-c2ccc(Cl)c3c(NS(C)(=O)=O)nn(CC(F)(F)F)c23)c([C@H](Cc2cc(F)cc(F)c2)NC(=O)Cn2nc(C(F)(F)F)c3c2C(F)(F)[C@@H]2C[C@H]32)n1)S(C)(=O)=O ): 362 nM

* * *

Test Summary: PK of compound of Formula (Ia) after single subcutaneous dose of solution formulations in beagle dogs
Assay type: in vivo
Condition Summary: male, beagle, dog, plasma, sc, 12 mg/kg, beagle dogs, SC 12 mg/kg, 400 mg/mL solution W (5.00% ethanol, 1.57% poloxamer 188), 2688 h, animals #1-#3
Assay Readout: concentration at 2688 h (nM)
Write it as a number; the unit nM goes unstated.

Recorded concentration at 2688 h (compound CC(C)(C#Cc1ccc(-c2ccc(Cl)c3c(NS(C)(=O)=O)nn(CC(F)(F)F)c23)c([C@H](Cc2cc(F)cc(F)c2)NC(=O)Cn2nc(C(F)(F)F)c3c2C(F)(F)[C@@H]2C[C@H]32)n1)S(C)(=O)=O [compound of Formula (Ia)] ): 9.87

* * *

Test Summary: PK of compound of Formula (Ia) after single subcutaneous dose of solution formulations in beagle dogs
Format: in vivo
Condition Summary: male, beagle, dog, plasma, sc, 12 mg/kg, male beagle dogs, single SC 12 mg/kg, 400 mg/mL solution AA (6.25% poloxamer 188), mean ± SD, n = 3; read-out: AUC0-3024 h
Protocol: Formulations containing the compound of Formula (Ia), or a pharmaceutically acceptable salt thereof, were prepared as solutions and optionally administered subcutaneously or intramuscularly to rats, rabbits, and/or dogs. A solution of about 400 mg/mL of the compound of Formula (Ia) having 17.00 w/w % water, 36.40 w/w % PEG 300, 35.20 w/w % of a sodium salt of a compound of Formula (Ia), 5.00 w/w % ethanol, and 6.40 w/w % poloxamer 188 was prepared. […]
Assay Readout: AUC(0-t) (µM·h)
Write it as a number; the unit µM·h goes unstated.

Recorded AUC(0-t) (compound CC(C)(C#Cc1ccc(-c2ccc(Cl)c3c(NS(C)(=O)=O)nn(CC(F)(F)F)c23)c([C@H](Cc2cc(F)cc(F)c2)NC(=O)Cn2nc(C(F)(F)F)c3c2C(F)(F)[C@@H]2C[C@H]32)n1)S(C)(=O)=O ): 200
